# protocol_details: growth suppression of PTEN-null colon cells, dose response, cell-based, HCT116 PTEN knockout (AID 1047)
# measurement_context: CellTiter-Glo, 60 h; series mostly up to 30 µM
About 1,400 (93%) of roughly 1,500 compounds were called active. The set was probably picked from earlier hits. The list is a sample of the results. Results with a measured potency or affinity are listed apart.
measurement_type: outcome

CCOc1c(OC)ccc2c3c(c(=O)oc12)CCCC3 ... inactive
COC(C)(C)[C@H](O)COc1c2ccoc2cc2oc(=O)ccc12 ... inactive
COC(=O)COc1ccc(S(=O)(=O)NCc2ccncc2)cc1 ... inactive
O=C(Nc1cccc(C(F)(F)F)c1)NC1CCCCC1 ... inactive
COc1ccc(CCn2c(N)c(C(=O)NCc3ccco3)c3nc4ccccc4nc32)cc1OC ... inactive
Cc1ccc(CNc2ccc(O)cc2)cc1 ... inactive

Q: # input compound: `COC(=O)C1=C(C)N(c2ccc(F)c(Cl)c2)C(=O)C1` ; wanted: its outcome
Ans: inactive
